Values were extracted from patent EP1382597A2.

# Assayed Target: human PR-B (Homo sapiens)
# Construct: expressed in transfected cells; host or cells: CV-1 cells (African green monkey kidney fibroblasts), transient transfection
# Sequence (P06401 whole entry): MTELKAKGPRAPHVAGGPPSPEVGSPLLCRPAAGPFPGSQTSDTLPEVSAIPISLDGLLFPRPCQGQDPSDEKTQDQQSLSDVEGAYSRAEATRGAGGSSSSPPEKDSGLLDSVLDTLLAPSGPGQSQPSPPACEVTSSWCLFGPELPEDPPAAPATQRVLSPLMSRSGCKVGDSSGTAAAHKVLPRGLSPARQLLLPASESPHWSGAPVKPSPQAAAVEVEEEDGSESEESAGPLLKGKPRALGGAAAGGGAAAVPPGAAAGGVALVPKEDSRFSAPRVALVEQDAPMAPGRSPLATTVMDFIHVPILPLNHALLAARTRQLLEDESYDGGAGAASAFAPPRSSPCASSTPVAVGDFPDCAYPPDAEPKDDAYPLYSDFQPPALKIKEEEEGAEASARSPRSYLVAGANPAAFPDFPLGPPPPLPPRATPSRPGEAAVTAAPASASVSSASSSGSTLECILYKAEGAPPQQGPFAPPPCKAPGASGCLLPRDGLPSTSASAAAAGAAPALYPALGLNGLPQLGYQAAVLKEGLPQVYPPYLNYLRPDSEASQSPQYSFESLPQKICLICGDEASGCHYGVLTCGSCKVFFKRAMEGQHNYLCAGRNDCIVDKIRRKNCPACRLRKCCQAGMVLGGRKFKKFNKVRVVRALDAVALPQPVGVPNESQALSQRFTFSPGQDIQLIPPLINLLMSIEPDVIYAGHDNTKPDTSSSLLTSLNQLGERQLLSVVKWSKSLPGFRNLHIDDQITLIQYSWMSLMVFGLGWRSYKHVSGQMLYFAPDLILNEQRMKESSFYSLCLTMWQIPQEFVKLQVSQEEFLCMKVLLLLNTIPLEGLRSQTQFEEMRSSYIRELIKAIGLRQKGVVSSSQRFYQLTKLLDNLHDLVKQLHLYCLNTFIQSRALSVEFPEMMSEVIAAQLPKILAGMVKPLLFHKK
# Test Protocol: Co-transfection assay, PR antagonist activity;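 further: monkey kidney fibroblasts co-transfected with receptor expression plasmid and hormone-responsive luciferase reporter, antagonism read as reduced luciferase signal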
# Format: cell-based
# Condition Parameters: CV-1, read-out: PR Antagonist CV-1 Cells Efficacy (%)

{"Molecule": "CC1=CC(C)(C)Nc2ccc(-c3cccc(C#N)c3)cc21 [Compound 150]", "Limit Qualifier": "=", "Emax [%]": 91}
{"Molecule": "CC1=CC(C)(C)Nc2ccc3c(c21)C(C)Oc1ccc(Cl)cc1-3 (racemic) [Compound 332]", "Limit Qualifier": "<", "Emax [%]": 20}
{"Molecule": "CCCO[C@@H]1[C@@H](C)c2c(ccc3c2[C@H](c2ccc(Cl)cc2)Oc2ccccc2-3)NC1(C)C (relative stereo) [Compound 400]", "Limit Qualifier": "=", "Emax [%]": 68}
